- Test system: HEK-293T
- runDescription: Multiplex assay against HEK293T
- Assay type: toxicity, cell-based
- settings: human, 48 h, 10 µM, compound concentration 10 uM, replicate 1
Kindly state Total Cell Count for each of the entries shown.
One number for each entry.

Your task in this section: give Total Cell Count for each listed record.
1. CCOc1cc2ncc(C#N)c(Nc3ccc(OCc4ccccn4)c(Cl)c3)c2cc1NC(=O)/C=C/CN(C)C [NERATINIB]
2. O=C1N/C(=N/c2ccccc2F)S/C1=C\c1ccc(C(=O)O)cc1
3. Cc1cn(-c2cc(NC(=O)c3ccc(C)c(Nc4nccc(-c5cccnc5)n4)c3)cc(C(F)(F)F)c2)cn1 [NILOTINIB]
4. Cc1cc(C)c(S(=O)(=O)N(Cc2ccc(-c3cccc(S(C)(=O)=O)c3)cc2)Cc2ccc(C(F)(F)F)o2)c(C)c1
5. CN1C2CCC1CC(OC(c1ccc(F)cc1)c1ccc(F)cc1)C2.Cl (configuration not stated)

[1487, 279, 1138, 302, 285]

Your task in this section: give Total Cell Count for each listed record.
1. CN1CCC(=C2c3ccccc3CC(=O)c3sccc32)CC1.O=C(O)/C=C/C(=O)O [KETOTIFEN FUMARATE]
2. CCCS(=O)(=O)c1nc(NC2CC2)cc(-c2ccc3c(ccn3C3CC(C)(C)NC(C)(C)C3)c2)n1

1: 362; 2: 663

====

Kindly supply the reported Population Pyknosed Nuclei (%) values for the records listed here.
- Test system: HEK-293T
- runDescription: Multiplex assay against HEK293T
- Format: toxicity, cell-based
- settings: human, 12 h, 10 µM, compound concentration 10 uM, replicate 2

See these solved cases before continuing.
compound	Population Pyknosed Nuclei (%)
CN1CCC(=C2c3ccccc3CC(=O)c3sccc32)CC1.O=C(O)/C=C/C(=O)O [KETOTIFEN FUMARATE]	69%
O=C(Nc1ccc(Cl)cc1)Nc1cccc(-c2cccc(N3CCCC3)n2)c1	78%
CCn1c(=O)c(-c2ccc(-c3cncs3)cc2Cl)cc2cnc(Nc3ccc(N4CCN(C)CC4)cc3)nc21	37%
O=C(Cc1ccc(-c2ccc(OCCN3CCOCC3)cc2)cn1)NCc1ccccc1	66%
CN1C2CCC1CC(OC(c1ccc(F)cc1)c1ccc(F)cc1)C2.Cl (configuration not stated)	74%

Lab note: each compound below needs its Population Pyknosed Nuclei (%) filled in.
1. CN(C)C(=O)C(CCN1CCC(O)(c2ccc(Cl)cc2)CC1)(c1ccccc1)c1ccccc1.Cl [LOPERAMIDE HYDROCHLORIDE]
2. COc1cccc2cc(-c3nc([C@H]4CC[C@H](C(=O)O)CC4)n4ncnc(N)c34)[nH]c12
3. O=C(Nc1ccc(-n2nc(-c3cccnc3)cc2C(F)(F)F)cn1)c1ccc(-c2ccccc2)c(F)c1
4. Cl.Oc1ccc2c3c1O[C@H]1c4[nH]c5c(c4C[C@@]4(O)[C@@H](C2)N(CC2CC2)CC[C@]314)C[C@@]1(O)[C@H]2Cc3ccc(O)c4c3[C@@]1(CCN2CC1CC1)[C@H]5O4

1. 86%
2. 5%
3. 47%
4. 48%

Answer for every listed entry: what is its Population Pyknosed Nuclei (%)? The entries follow.
1. Cl.O=c1c2cccn2c2ccccc2n1CCCN1CCC(c2ccc(Cl)cc2)CC1
2. Cc1ccc2nc(NCCN)c3ncc(C)n3c2c1.O=C(O)C(F)(F)F.O=C(O)C(F)(F)F
3. CNC(=O)c1ccc(Nc2nc(OC3CCCC3)c3c(-c4ccc5nc(C)oc5c4)c[nH]c3n2)c(OC)c1

["72%", "10%", "4%"]

# return Population Pyknosed Nuclei (%) for each item in the list
1. CCc1cccc(CC)c1NC(=O)c1nn(C)c2c1CCc1cnc(Nc3ccc(C(=O)NC4CCN(C)CC4)cc3OC(F)(F)F)nc1-2
2. O=C1NC(=O)C(c2cnc3ccccn23)=C1c1cn2c3c(cc(F)cc13)CN(C(=O)N1CCCCC1)CC2
3. Cc1ccc(C(=O)Nc2cccc(C(F)(F)F)c2)cc1Nc1nc(-c2cccnc2)nc2c1cnn2C
4. O=C1N/C(=N/c2ccccc2F)S/C1=C\c1ccc(C(=O)O)cc1
5. CCN1CCN(Cc2ccc(Nc3ncc(F)c(-c4cc(F)c5nc(C)n(C(C)C)c5c4)n3)nc2)CC1.CS(=O)(=O)O

1. 78%
2. 87%
3. 81%
4. 43%
5. 62%

Below are some compounds; for each one, tell me its Population Pyknosed Nuclei (%).
1. O=C(Nc1ccc(-c2ccnc(Nc3ccc(N4CCOCC4)cc3)n2)cc1)[C@@H]1CCCN1
2. S=C(NCCCc1c[nH]cn1)NCCCN(Cc1ccc(Cl)c(Cl)c1)c1ccc(Br)cn1
3. CN1CCN(C(=O)C(C)(C)c2ccc(C(=O)Nc3cn4cc(-c5cc(C(C)(C)C)cc(C(C)(C)C)c5)ccc4n3)cc2)CC1
4. Cn1nc(C(F)(F)F)cc1-c1cnc(N2CCc3cc(S(=O)(=O)Nc4c(F)cc(Cl)cc4F)cc(N4CCCC4=O)c32)nc1
5. COc1ccc(-c2ccc3c(N4CCOCC4)nc(N4C[C@@H](C)O[C@@H](C)C4)nc3n2)cc1CO

1. 72%
2. 90%
3. 15%
4. 4%
5. 1%

====

For each entry below, report its Population Tubulin-Different-Phenotype (%) value.
- Test system: HEK-293T
- runDescription: Multiplex assay against HEK293T;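 for Population Tubulin-Different-Phenotype (%): share of the cells with healthy nuclei that show this phenotype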
- Format: toxicity, cell-based
- settings: human, 24 h, 10 µM, compound concentration 10 uM, replicate 1

Look over these answered cases.
moleculeSmiles	measuredResult
Cl.Oc1ccc2c3c1O[C@H]1c4[nH]c5c(c4C[C@@]4(O)[C@@H](C2)N(CC2CC2)CC[C@]314)C[C@@]1(O)[C@H]2Cc3ccc(O)c4c3[C@@]1(CCN2CC1CC1)[C@H]5O4	30%
C=C1/C(=C\C=C2/CCC[C@]3(C)[C@@H]([C@H](C)/C=C/[C@H](C)C(C)C)CC[C@@H]23)C[C@@H](O)C[C@@H]1O	58%

Now examine the next entry.
Suppose we examine the molecule `Cc1ccc(C(=O)Nc2cccc(C(F)(F)F)c2)cc1Nc1nc(-c2cccnc2)nc2c1cnn2C` ; what Population Tubulin-Different-Phenotype (%) value has been reported?
100%

====

I'd be grateful if you could share measured Population Healthy Nuclei (%) for these entries.
- Tested on: HEK-293T
- runDescription: Multiplex assay against HEK293T
- Format: toxicity, cell-based
- settings: human, 24 h, 10 µM, compound concentration 10 uM, replicate 1
One number for each entry, in %.

Reference set, count: 2
compound	quantityName	unitTag	measuredResult
CCn1c(=O)c(-c2ccc(-c3cncs3)cc2Cl)cc2cnc(Nc3ccc(N4CCN(C)CC4)cc3)nc21	Population Healthy Nuclei (%)	%	8
Cc1ccc2nc(NCCN)c3ncc(C)n3c2c1.O=C(O)C(F)(F)F.O=C(O)C(F)(F)F	Population Healthy Nuclei (%)	%	60

Next:
Please look up its Population Healthy Nuclei (%): CN(C)C(=O)C(CCN1CCC(O)(c2ccc(Cl)cc2)CC1)(c1ccccc1)c1ccccc1.Cl [LOPERAMIDE HYDROCHLORIDE]
8

====

- System: HEK-293T
- runDescription: Multiplex assay against HEK293T
- Assay type: toxicity, cell-based
- settings: human, 24 h, 1 µM, compound concentration 1 uM, replicate 2
quantityName: Population Membrane Permeable-Phenotype (%)
One number for each entry, in %.

Previously resolved entries follow.
compound	measuredResult
Cc1cc(C)c(S(=O)(=O)N(Cc2ccc(-c3cccc(S(C)(=O)=O)c3)cc2)Cc2ccc(C(F)(F)F)o2)c(C)c1	10
CN[C@@H]1C[C@H]2O[C@@](C)([C@@H]1OC)n1c3ccccc3c3c4c(c5c6ccccc6n2c5c31)C(=O)NC4 [STAUROSPORINE]	10

What value of Population Membrane Permeable-Phenotype (%) has been reported for the following compound? COc1cccc2cc(-c3nc([C@H]4CC[C@H](C(=O)O)CC4)n4ncnc(N)c34)[nH]c12 [OSI-027]
6

====

- System: U2OS
- runDescription: Multiplex assay against U2OS
- Type: toxicity, cell-based
- settings: human, 12 h, 1 µM, compound concentration 1 uM, replicate 1
quantityName: Population Fragmented Nuclei (%)
One number for each entry, in %.

Observe how each entry below is paired with its result.
compound	measuredTarget	measuredResult
CN1C2CCC1CC(OC(c1ccc(F)cc1)c1ccc(F)cc1)C2.Cl (stereo not drawn)	U2OS	8
CN1CCN(C(=O)C(C)(C)c2ccc(C(=O)Nc3cn4cc(-c5cc(C(C)(C)C)cc(C(C)(C)C)c5)ccc4n3)cc2)CC1	U2OS	8

Reported Population Fragmented Nuclei (%), compound `CCCn1c(=O)c2[nH]c(-c3cnn(Cc4cccc(C(F)(F)F)c4)c3)nc2n(CC)c1=O` : ____
8

====

- System: U2OS
- runDescription: Multiplex assay against U2OS
- Assay type: toxicity, cell-based
- settings: human, 24 h, 1 µM, compound concentration 1 uM, replicate 2
quantityName: Population Healthy Nuclei (%)
Numbers only, in %.

molecule	Population Healthy Nuclei (%)
C=C1/C(=C\C=C2/CCC[C@]3(C)[C@@H]([C@H](C)/C=C/[C@H](C)C(C)C)CC[C@@H]23)C[C@@H](O)C[C@@H]1O	86
CN[C@@H]1C[C@H]2O[C@@](C)([C@@H]1OC)n1c3ccccc3c3c4c(c5c6ccccc6n2c5c31)C(=O)NC4	10
COc1cc2ncnc(Nc3ccc(F)c(Cl)c3)c2cc1NC(=O)/C=C/CN1CCCCC1 [DACOMITINIB ANHYDROUS]	78
CCOC(=O)c1c(C)[nH]c2ccc3c(c12)CN1CCc2cc(OC)ccc2C1O3 (stereo unspecified)	75
CCc1cccc(CC)c1NC(=O)c1nn(C)c2c1CCc1cnc(Nc3ccc(N4CCN(C)CC4)cc3OC)nc1-2	17
C=CCn1c(=O)c2cnc(Nc3ccc(N4CCN(C)CC4)cc3)nc2n1-c1cccc(C(C)(C)O)n1	51

// each listed molecule needs a value for Population Healthy Nuclei (%)
1. CN1C2CCC1CC(OC(c1ccc(F)cc1)c1ccc(F)cc1)C2.Cl (stereo unspecified)
2. O=C(Nc1cccnn1)N1CCC(=Cc2cccc(Oc3ccc(C(F)(F)F)cn3)c2)CC1
3. CCOc1cc(C(=O)N2CCC(N3CCN(C)CC3)CC2)ccc1Nc1ncc2c(n1)N(C1CCCC1)c1ccccc1C(=O)N2C
4. COc1ccc(-c2ccc3c(N4CCOCC4)nc(N4C[C@@H](C)O[C@@H](C)C4)nc3n2)cc1CO

90
79
72
86

Data request, read-out Population Healthy Nuclei (%), for `CCCn1c(=O)c2[nH]c(-c3cnn(Cc4cccc(C(F)(F)F)c4)c3)nc2n(CC)c1=O`
90

Each recorded value in this set is attributed to ChEMBL document CHEMBL4689842.
